test system: Mycobacterium tuberculosis; test: Antimycobacterial activity against Mycobacterium tuberculosis H37Rv after 5 days by microplate alamar blue assay; assay type: functional
What -logMIC was measured for each of the following?

### Prompt Reported -logMIC, compound C/C(=N\NC(=O)c1ccc(-n2cccc2)cc1)c1ccc(-n2cccc2)cc1 : ____
### Response 4.903

### Prompt Further, for C/C(=N\NC(=O)COc1ccccc1Cl)c1ccc(-n2cccc2)cc1 ?
### Response 4.602

### Prompt Further, for CC(=O)Nc1ccc(S(=O)(=O)N/N=C(\C)c2ccc(-n3cccc3)cc2)cc1 ?
### Response 6.699

### Prompt Further, for C/C(=N\NC(N)=O)c1ccc(-n2cccc2)cc1 ?
### Response 4

### Prompt Further, for C/C(=N\NS(=O)(=O)c1ccc(N)cc1)c1ccc(-n2c(C)ccc2C)cc1 ?
### Response 4.903

###

What -logMIC was measured for each of the following?
tested on: Mycobacterium tuberculosis; experiment: Antimycobacterial activity against Mycobacterium tuberculosis H37Rv after 5 days by microplate alamar blue assay; assay type: functional
Would you mind answering with just the numeric figure?

### Prompt Reported -logMIC, molecule CC(=O)Nc1ccc(S(=O)(=O)N/N=C(\C)c2ccc(-n3c(C)ccc3C)cc2)cc1 : ____
### Response 6.097

### Prompt Further, for C/C(=N\NS(=O)(=O)c1ccc(C)cc1)c1ccc(-n2cccc2)cc1 ?
### Response 6.097

### Prompt Further, for C/C(=N\NC(=O)COc1cccc2ccccc12)c1ccc(-n2cccc2)cc1 ?
### Response 6.398

### Prompt Further, for C/C(=N\NC(=O)COc1ccc(Cl)cc1)c1ccc(-n2c(C)ccc2C)cc1 ?
### Response 5.505

### Prompt Further, for C/C(=N\NC(N)=S)c1ccc(-n2cccc2)cc1 ?
### Response 4.301

### Prompt Further, for C/C(=N\NC(=O)c1ccc(-n2cccc2)cc1)c1ccc(-n2c(C)ccc2C)cc1 ?
### Response 4.301

### Prompt Further, for C/C(=N\NC(=O)c1ccc(-n2c(C)ccc2C)cc1)c1ccc(-n2c(C)ccc2C)cc1 ?
### Response 4.602

### Prompt Further, for C/C(=N\Nc1ccc([N+](=O)[O-])cc1[N+](=O)[O-])c1ccc(-n2cccc2)cc1 ?
### Response 4.903

### Prompt Further, for C/C(=N\NC(=O)c1ccc(-n2c(C)ccc2C)cc1)c1ccc(-n2cccc2)cc1 ?
### Response 4.602

### Prompt Further, for C/C(=N\NC(=O)COc1cccc2ccccc12)c1ccc(-n2c(C)ccc2C)cc1 ?
### Response 6.699

###

What -logMIC was measured for each of the following?
tested on: Mycobacterium tuberculosis; assay: Antimycobacterial activity against Mycobacterium tuberculosis H37Rv after 5 days by microplate alamar blue assay; assay type: functional
Would you mind answering with just the numeric figure?

### Prompt Reported -logMIC, molecule C/C(=N\NC(=O)c1ccccc1)c1ccc(-n2c(C)ccc2C)cc1 : ____
### Response 4.602

### Prompt Further, for C/C(=N\NC(=O)c1ccc(O)cc1)c1ccc(-n2cccc2)cc1 ?
### Response 4.903

### Prompt Further, for C/C(=N\NC(=O)c1ccc(Cl)cc1)c1ccc(-n2c(C)ccc2C)cc1 ?
### Response 4.602

### Prompt Further, for C/C(=N\NC(=O)COc1c(Cl)cc(Cl)cc1Cl)c1ccc(-n2cccc2)cc1 ?
### Response 4.301

### Prompt Further, for C/C(=N\NC(=O)COc1ccc(Cl)cc1)c1ccc(-n2cccc2)cc1 ?
### Response 4.903

### Prompt Further, for C/C(=N\NC(=O)COc1ccc(O)cc1)c1ccc(-n2cccc2)cc1 ?
### Response 4.602

### Prompt Further, for C/C(=N\NC(=O)c1ccccc1Cl)c1ccc(-n2c(C)ccc2C)cc1 ?
### Response 4.903

### Prompt Further, for C/C(=N\NC(=O)c1ccc(C)cc1)c1ccc(-n2c(C)ccc2C)cc1 ?
### Response 4.602

### Prompt Further, for C/C(=N\NC(=O)c1ccccc1)c1ccc(-n2cccc2)cc1 ?
### Response 4.301

### Prompt Further, for C/C(=N\NC(=O)COc1ccc2ccccc2c1)c1ccc(-n2c(C)ccc2C)cc1 ?
### Response 6.699

###

What -logMIC was measured for each of the following?
system: Mycobacterium tuberculosis; experiment: Antimycobacterial activity against Mycobacterium tuberculosis H37Rv after 5 days by microplate alamar blue assay; format: functional
Would you mind answering with just the numeric figure?

### Prompt Reported -logMIC, molecule C/C(=N\NC(=O)COc1ccccc1)c1ccc(-n2cccc2)cc1 : ____
### Response 4.903

### Prompt Further, for C/C(=N\NC(=O)COc1ccc(Br)cc1)c1ccc(-n2c(C)ccc2C)cc1 ?
### Response 5.204

### Prompt Further, for C/C(=N\NC(=O)COc1ccc2ccccc2c1)c1ccc(-n2cccc2)cc1 ?
### Response 6.699

### Prompt Further, for C/C(=N\NC(=O)c1ccccc1Cl)c1ccc(-n2cccc2)cc1 ?
### Response 4.602

### Prompt Further, for C/C(=N\NC(=O)c1ccncc1)c1ccc(-n2c(C)ccc2C)cc1 ?
### Response 4

### Prompt Further, for C/C(=N\NS(=O)(=O)c1ccc(N)cc1)c1ccc(-n2cccc2)cc1 ?
### Response 5.204

### Prompt Further, for C/C(=N\NC(=O)COc1c(Cl)cc(Cl)cc1Cl)c1ccc(-n2c(C)ccc2C)cc1 ?
### Response 4.903

### Prompt Further, for C/C(=N\NC(=O)c1cccnc1)c1ccc(-n2cccc2)cc1 ?
### Response 4.301

### Prompt Further, for C/C(=N\NC(=O)c1ccc(Br)cc1)c1ccc(-n2c(C)ccc2C)cc1 ?
### Response 4.602

### Prompt Further, for C/C(=N\NC(=O)COc1ccc(C)cc1)c1ccc(-n2c(C)ccc2C)cc1 ?
### Response 5.505

From: ChEMBL document CHEMBL3098082
